tested on: Mycobacterium tuberculosis (strain H37RV); test: In-vitro method for testing compounds against M. tuberculosis (resazurin growth inhibition); format: cell-based; details: 7 days incubation
Reported M. tuberculosis pIC50 by item:
The reply should be a number, written without any unit.

Q: // returns reported M. tuberculosis pIC50 for input Cc1ccc2nc(-c3ccccc3)c(C(c3ccccc3)N(CC(=O)N3CCN(Cc4ccccc4)CC3)Cc3ccccc3)cc2c1 (stereo not drawn)
Result: 6.05

Q: // returns reported M. tuberculosis pIC50 for input Cc1ccc2nc(-c3ccccc3)c(C(c3ccccc3)N(CC(=O)N3CCCC3)Cc3ccccc3)cc2c1 (stereo not drawn)
Result: 5.0

Q: // returns reported M. tuberculosis pIC50 for input Cc1ccc2nc(-c3ccccc3)c(C(c3ccccc3)N(CC(=O)N3CCOCC3)Cc3ccccc3)cc2c1 (stereo not drawn)
Result: 5.1

Q: // returns reported M. tuberculosis pIC50 for input COc1nc2ccc(Br)cc2cc1C(c1ccccc1)N(CCN(C)C)Cc1ccccc1 (stereo not drawn)
Result: 5.1

Q: // returns reported M. tuberculosis pIC50 for input Cc1ccc2nc(-c3ccccc3)c(C(c3ccccc3)N(CC(=O)N3Cc4ccccc4C3)Cc3ccccc3)cc2c1 (stereo not drawn)
Result: 4.5

Q: // returns reported M. tuberculosis pIC50 for input Cc1ccc2nc(-c3ccccc3)c(C(c3ccccc3)N(CC(=O)N3CC(C)OC(C)C3)Cc3ccccc3)cc2c1 (stereo not drawn)
Result: 5.1

Q: // returns reported M. tuberculosis pIC50 for input O=C(CN(Cc1ccccc1)C(c1ccccc1)c1cc2ccccc2nc1-c1ccccc1)N1CCCC1 (stereo not drawn)
Result: 4.3

Q: // returns reported M. tuberculosis pIC50 for input CCN(Cc1ccccc1)C(=O)CN(Cc1ccccc1)C(c1ccccc1)c1cc2cc(C)ccc2nc1-c1ccccc1 (stereo not drawn)
Result: 4.1

Q: // returns reported M. tuberculosis pIC50 for input Cc1ccc2nc(-c3ccccc3)c(C(c3ccccc3)N(CC(=O)N3CCN(c4ccccn4)CC3)Cc3ccccc3)cc2c1 (stereo not drawn)
Result: 5.4

Q: // returns reported M. tuberculosis pIC50 for input Cc1ccc2nc(-c3ccccc3)c(C(c3ccccc3)N(CC(=O)N3CCC(Cc4ccccc4)CC3)Cc3ccccc3)cc2c1 (stereo not drawn)
Result: 5.7

Q: // returns reported M. tuberculosis pIC50 for input Cc1ccc2nc(-c3ccccc3)c(C(c3ccccc3)N(CC(=O)N3CCN(c4ncccn4)CC3)Cc3ccccc3)cc2c1 (stereo not drawn)
Result: 5.0

Q: // returns reported M. tuberculosis pIC50 for input CCOC(=O)CN(C(C)C)C(c1ccccc1)c1cc2cc(Br)ccc2nc1OC (stereo not drawn)
Result: 4.4

Q: // returns reported M. tuberculosis pIC50 for input Cc1ccc2nc(-c3ccccc3)c(C(c3ccccc3)N(CC(=O)N(C)CC#N)Cc3ccccc3)cc2c1 (stereo not drawn)
Result: 5.0

Q: // returns reported M. tuberculosis pIC50 for input CCCN(CCC)C(=O)CN(Cc1ccccc1)C(c1ccccc1)c1cc2cc(C)ccc2nc1-c1ccccc1 (stereo not drawn)
Result: 4.6

---

observation type: melting point (°C)
Answer in °C, number only, no unit symbol.

Known melting point results, listed for orientation:
- COc1nc2ccc(C)cc2cc1C(c1ccccc1)N(CC(=O)N1CCOCC1)Cc1ccccc1 (centres unmarked): 126
- Cc1ccc2nc(-c3ccccc3)c(C(c3ccccc3)N(CC(=O)N3CCCCC3)Cc3ccccc3)cc2c1 (centres unmarked): 78
- CCOC(=O)CN(Cc1ccccc1)C(c1ccccc1)c1cc2cc(C#N)ccc2nc1OC (centres unmarked): 148
- COc1nc2ccc(C#N)cc2cc1C(c1ccccc1)N(CC(=O)N1CCCC1)Cc1ccccc1 (centres unmarked): 161

Q: // returns reported melting point for input COc1nc2ccc(Br)cc2cc1C(c1ccccc1)N(CC(=O)N1CCN(C)CC1)Cc1ccccc1 (centres unmarked)
Result: 152

Recorded values, source patent US7915292B2.
